- Test system: S. aureus ATCC 14154
- testDetails: microdilution assay MIC, S. aureus ATCC 14154
- Assay type: cell-based, Staphylococcus aureus
- conditionNotes: S. aureus ATCC 14154, erythromycin A resistant strain; average where multiple assays
observedProperty: MIC

compound: COC1(C)CC(C)C(=O)C(C)C2NC(=O)OC2(C)C(CCNC(=O)Oc2cccc3ccccc23)OC(=O)C(C)C(=O)C(C)C1OC1OC(C)CC(N(C)C)C1O (stereo not drawn) [Compound 114]
observedProperty: MIC
recordedValue: 0.025 µg/mL

compound: COC(=O)NCCC1OC(=O)C(C)C(=O)C(C)C(OC2OC(C)CC(N(C)C)C2O)C(C)(OC)CC(C)C(=O)C(C)C2NC(=O)OC12C (stereo not drawn) [Compound 118]
observedProperty: MIC
recordedValue: 0.39 µg/mL

compound: COC1(C)CC(C)C(=O)C(C)C2NC(=O)OC2(C)C(CCNS(=O)(=O)c2ccc3ccccc3c2)OC(=O)C(C)C(=O)C(C)C1OC1OC(C)CC(N(C)C)C1O (stereo not drawn) [Compound 107]
observedProperty: MIC
recordedValue: 1.56 µg/mL

compound: COC1(C)CC(C)C(=O)C(C)C2NC(=O)OC2(C)C(CCNS(=O)(=O)c2cccc3ccccc23)OC(=O)C(C)C(=O)C(C)C1OC1OC(C)CC(N(C)C)C1O (stereo not drawn) [Compound 106]
observedProperty: MIC
recordedValue: 3.12 µg/mL

compound: COC1(C)CC(C)C(=O)C(C)C2NC(=O)OC2(C)C(CCNS(=O)(=O)c2cccc(-c3ccco3)c2)OC(=O)C(C)C(=O)C(C)C1OC1OC(C)CC(N(C)C)C1O (stereo not drawn) [Compound 108]
observedProperty: MIC
recordedValue: 0.049 µg/mL

For the next question, use this compound.
Item: COC1(C)CC(C)C(=O)C(C)C2NC(=O)OC2(C)C(CCNS(=O)(=O)c2cccc3cccnc23)OC(=O)C(C)C(=O)C(C)C1OC1OC(C)CC(N(C)C)C1O (stereo not drawn) [Compound 105] | MIC: 0.39 µg/mL

----------
- Test system: S. pneumoniae ATCC 700905
- testDetails: microdilution assay MIC, S. pneumoniae ATCC 700905
- Format: cell-based, Streptococcus pneumoniae
- conditionNotes: S. pneumoniae ATCC 700905, erythromycin A resistant strain; average where multiple assays
observedProperty: MIC

Sample answers from the record:
molecule: COC1(C)CC(C)C(=O)C(C)C2NC(=O)OC2(C)C(CCNS(=O)(=O)c2cccc3ccccc23)OC(=O)C(C)C(=O)C(C)C1OC1OC(C)CC(N(C)C)C1O (centres unmarked)
MIC: 0.01 µg/mL
--
molecule: COC1(C)CC(C)C(=O)C(C)C2NC(=O)OC2(C)C(CCNC(=O)Oc2cccc(-c3ccncc3)c2)OC(=O)C(C)C(=O)C(C)C1OC1OC(C)CC(N(C)C)C1O (centres unmarked)
MIC: 0.025 µg/mL
--
molecule: COC1(C)CC(C)C(=O)C(C)C2NC(=O)OC2(C)C(CCNS(=O)(=O)c2cccc(-c3ccco3)c2)OC(=O)C(C)C(=O)C(C)C1OC1OC(C)CC(N(C)C)C1O (centres unmarked)
MIC: 0.025 µg/mL
--
molecule: COC1(C)CC(C)C(=O)C(C)C2NC(=O)OC2(C)C(CCNC(=O)Oc2ccc3ccccc3c2)OC(=O)C(C)C(=O)C(C)C1OC1OC(C)CC(N(C)C)C1O (centres unmarked)
MIC: 0.025 µg/mL
--
molecule: COC1(C)CC(C)C(=O)C(C)C2NC(=O)OC2(C)C(CCNS(=O)(=O)c2ccc3ccccc3c2)OC(=O)C(C)C(=O)C(C)C1OC1OC(C)CC(N(C)C)C1O (centres unmarked)
MIC: 0.01 µg/mL

Item: COC1(C)CC(C)C(=O)C(C)C2NC(=O)OC2(C)C(CCNC(=O)Nc2cccc3ccccc23)OC(=O)C(C)C(=O)C(C)C1OC1OC(C)CC(N(C)C)C1O (centres unmarked) | MIC: 0.025 µg/mL

Item: COC1(C)CC(C)C(=O)C(C)C2NC(=O)OC2(C)C(CCN(C)CCc2cccc(-c3ccco3)c2)OC(=O)C(C)C(=O)C(C)C1OC1OC(C)CC(N(C)C)C1O (centres unmarked) | MIC: 0.049 µg/mL

----------
- Test system: H. influenzae ATCC 49766
- testDetails: microdilution assay MIC, H. influenzae ATCC 49766
- Assay type: cell-based, Haemophilus influenzae
- conditionNotes: average where multiple assays
- Description: In Table B, in some instances multiple assays were performed for a compound/strain combination, in which case the reported MIC is the average. S. pneumoniae ATCC 6301, ATCC 700671, and ATCC 49619 and S. aureus ATCC 6538p and ATCC 29213 are erythromycin sensitive strains.
observedProperty: MIC (µg/mL)
Value expressed in µg/mL; do not type the unit.

Item: CC[C@H]1OC(=O)[C@H](C)[C@@H](O[C@H]2C[C@@](C)(OC)[C@@H](O)[C@H](C)O2)[C@H](C)[C@@H](O[C@@H]2O[C@H](C)C[C@H](N(C)C)[C@H]2O)[C@](C)(O)C[C@@H](C)C(=O)[C@H](C)[C@@H](O)[C@]1(C)O [Ery A, erythromycin A, reference compound] | MIC: 6.25

Item: COC1(C)CC(C)C(=O)C(C)C2NC(=O)OC2(C)C(CCNC(=O)Oc2cccc(-c3ccncc3)c2)OC(=O)C(C)C(=O)C(C)C1OC1OC(C)CC(N(C)C)C1O (centres unmarked) | MIC: 3.12

Item: COC1(C)CC(C)C(=O)C(C)C2NC(=O)OC2(C)C(CCNC(=O)OCC(C)C)OC(=O)C(C)C(=O)C(C)C1OC1OC(C)CC(N(C)C)C1O (centres unmarked) | MIC: 6.25

Item: COC1(C)CC(C)C(=O)C(C)C2NC(=O)OC2(C)C(CCNC(=O)Nc2cccc3ccccc23)OC(=O)C(C)C(=O)C(C)C1OC1OC(C)CC(N(C)C)C1O (centres unmarked) | MIC: 3.12

Item: COC1(C)CC(C)C(=O)C(C)C2NC(=O)OC2(C)C(CCNS(=O)(=O)c2ccc3ccccc3c2)OC(=O)C(C)C(=O)C(C)C1OC1OC(C)CC(N(C)C)C1O (centres unmarked) | MIC: 12.5

Item: COC1(C)CC(C)C(=O)C(C)C2NC(=O)OC2(C)C(CCNC(=O)Oc2ccc(-c3ccccc3)cc2)OC(=O)C(C)C(=O)C(C)C1OC1OC(C)CC(N(C)C)C1O (centres unmarked) | MIC: 6.25

Item: COC1(C)CC(C)C(=O)C(C)C2NC(=O)OC2(C)C(CCNC(=O)Oc2cccc3ccccc23)OC(=O)C(C)C(=O)C(C)C1OC1OC(C)CC(N(C)C)C1O (centres unmarked) | MIC: 3.12

Item: COC1(C)CC(C)C(=O)C(C)C2NC(=O)OC2(C)C(CCNC(=O)Oc2ccc3ccccc3c2)OC(=O)C(C)C(=O)C(C)C1OC1OC(C)CC(N(C)C)C1O (centres unmarked) | MIC: 1.56

Item: COC1(C)CC(C)C(=O)C(C)C2NC(=O)OC2(C)C(CCNC(=O)OCC2c3ccccc3-c3ccccc32)OC(=O)C(C)C(=O)C(C)C1OC1OC(C)CC(N(C)C)C1O (centres unmarked) | MIC: 1.56

Item: COC1(C)CC(C)C(=O)C(C)C2NC(=O)OC2(C)C(CCNC(=O)Oc2cccc(-c3ccccc3)c2)OC(=O)C(C)C(=O)C(C)C1OC1OC(C)CC(N(C)C)C1O (centres unmarked) | MIC: 1.56

Item: COC1(C)CC(C)C(=O)C(C)C2NC(=O)OC2(C)C(CCNS(=O)(=O)c2cccc3cccnc23)OC(=O)C(C)C(=O)C(C)C1OC1OC(C)CC(N(C)C)C1O (centres unmarked) | MIC: 6.25

Item: COC(=O)NCCC1OC(=O)C(C)C(=O)C(C)C(OC2OC(C)CC(N(C)C)C2O)C(C)(OC)CC(C)C(=O)C(C)C2NC(=O)OC12C (centres unmarked) | MIC: 3.12

----------
- Tested on: S. aureus ATCC 6538p
- testDetails: microdilution assay MIC, S. aureus ATCC 6538p
- Assay type: cell-based, Staphylococcus aureus
- conditionNotes: erythromycin sensitive strain, average where multiple assays
observedProperty: MIC (µg/mL)
Value expressed in µg/mL; do not type the unit.

molecule: COC1(C)CC(C)C(=O)C(C)C2NC(=O)OC2(C)C(CCNS(=O)(=O)c2cccc3ccccc23)OC(=O)C(C)C(=O)C(C)C1OC1OC(C)CC(N(C)C)C1O (centres unmarked) [Compound 106]
MIC (µg/mL): 0.01
--
molecule: COC1(C)CC(C)C(=O)C(C)C2NC(=O)OC2(C)C(CCNS(=O)(=O)c2cccc(-c3ccco3)c2)OC(=O)C(C)C(=O)C(C)C1OC1OC(C)CC(N(C)C)C1O (centres unmarked) [Compound 108]
MIC (µg/mL): 0.025
--
molecule: CC[C@H]1OC(=O)[C@H](C)[C@@H](O[C@H]2C[C@@](C)(OC)[C@@H](O)[C@H](C)O2)[C@H](C)[C@@H](O[C@@H]2O[C@H](C)C[C@H](N(C)C)[C@H]2O)[C@](C)(O)C[C@@H](C)C(=O)[C@H](C)[C@@H](O)[C@]1(C)O [Ery A, erythromycin A, reference compound]
MIC (µg/mL): 0.098

For the next question, use this molecule.
Item: COC(=O)NCCC1OC(=O)C(C)C(=O)C(C)C(OC2OC(C)CC(N(C)C)C2O)C(C)(OC)CC(C)C(=O)C(C)C2NC(=O)OC12C (centres unmarked) [Compound 118] | MIC: 0.49

The values you see were collected from patent US8063021B2.
